Molecular target: Human HER3, endogenous, on human cancer cell lines (SK-Br-3, MCF7, BT-474) (human, UniProt P21860 20-1342)
Sequence (P21860 20-1342): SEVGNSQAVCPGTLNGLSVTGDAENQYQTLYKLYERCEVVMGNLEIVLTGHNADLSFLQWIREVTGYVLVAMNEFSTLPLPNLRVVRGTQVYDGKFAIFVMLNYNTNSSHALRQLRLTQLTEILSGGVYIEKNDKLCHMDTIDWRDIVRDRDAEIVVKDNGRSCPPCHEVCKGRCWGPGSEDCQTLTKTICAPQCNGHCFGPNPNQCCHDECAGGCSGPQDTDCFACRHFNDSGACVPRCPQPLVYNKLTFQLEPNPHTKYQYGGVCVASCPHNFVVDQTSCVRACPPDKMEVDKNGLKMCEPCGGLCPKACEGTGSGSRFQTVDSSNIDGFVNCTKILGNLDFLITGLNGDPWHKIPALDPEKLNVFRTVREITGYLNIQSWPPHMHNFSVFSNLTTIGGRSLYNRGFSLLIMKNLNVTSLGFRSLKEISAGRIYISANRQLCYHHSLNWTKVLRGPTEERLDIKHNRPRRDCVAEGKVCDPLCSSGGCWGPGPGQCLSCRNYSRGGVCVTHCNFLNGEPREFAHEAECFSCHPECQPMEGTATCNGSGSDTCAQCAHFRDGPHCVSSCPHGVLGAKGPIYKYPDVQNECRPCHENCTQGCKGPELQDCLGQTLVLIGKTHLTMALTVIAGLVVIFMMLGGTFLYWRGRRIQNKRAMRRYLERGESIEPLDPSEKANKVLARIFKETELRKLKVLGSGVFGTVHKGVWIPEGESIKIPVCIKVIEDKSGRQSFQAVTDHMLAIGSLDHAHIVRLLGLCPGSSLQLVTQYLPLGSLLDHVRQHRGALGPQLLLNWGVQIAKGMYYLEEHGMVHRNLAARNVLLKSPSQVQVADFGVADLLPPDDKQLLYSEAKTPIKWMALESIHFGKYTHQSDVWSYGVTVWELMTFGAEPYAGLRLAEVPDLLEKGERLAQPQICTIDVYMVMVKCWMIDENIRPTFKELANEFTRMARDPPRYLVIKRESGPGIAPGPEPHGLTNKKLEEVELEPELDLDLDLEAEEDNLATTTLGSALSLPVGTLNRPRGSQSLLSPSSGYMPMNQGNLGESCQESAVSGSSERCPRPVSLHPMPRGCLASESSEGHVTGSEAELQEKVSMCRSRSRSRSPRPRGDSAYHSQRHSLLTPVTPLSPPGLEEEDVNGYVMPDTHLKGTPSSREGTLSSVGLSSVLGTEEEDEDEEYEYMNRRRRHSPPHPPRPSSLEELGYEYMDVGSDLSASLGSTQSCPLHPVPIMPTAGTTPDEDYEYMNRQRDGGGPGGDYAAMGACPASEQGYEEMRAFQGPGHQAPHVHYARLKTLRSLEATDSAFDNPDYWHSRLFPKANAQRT
Assay: cell-based or functional assay
PROPERTY MEASURED: BT-474 pAkt (S473) IC50

*Q* Fill blank: measured BT-474 pAkt (S473) IC50 of the binder MOR13762 (antibody, human IgG1, kappa, V domains shown, tested as IgG) VH: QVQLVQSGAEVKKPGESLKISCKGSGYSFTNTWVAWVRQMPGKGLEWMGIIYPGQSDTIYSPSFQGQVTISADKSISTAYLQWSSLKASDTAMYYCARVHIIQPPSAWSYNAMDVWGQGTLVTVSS VL: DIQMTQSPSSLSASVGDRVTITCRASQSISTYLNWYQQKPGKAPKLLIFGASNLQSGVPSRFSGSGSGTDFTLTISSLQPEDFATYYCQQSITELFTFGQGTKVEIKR is ____.
*A* 291 pM
